This collection of values is drawn from ChEMBL document CHEMBL5338788.

System: HT
Assay: Antiproliferative activity against human HT cells expressing wild-type EZH2 assessed as inhibition of cell proliferation incubated for 6 days by CCK8 assay
Type: functional, cell-based
Conditions: 144 h
pIC50: −log10 of the molar value.
assay-endpoint: pIC50

                                   compound     val
0  CCC(=O)NCc1cc(C(=O)NCc2c(SC)cc(C)[nH]c2=O)c(C)c(N(CC)C2CCOCC2)c1  < 5.52

**Query** I have this compound here, CCN(c1cc(-c2ccc(CN3CCOCC3)cc2)cc(C(=O)NCc2c(C)cc(C)[nH]c2=O)c1C)C1CCOCC1 [TAZEMETOSTAT] , and I need its recorded pIC50.
**Result** < 5.52

----------
Test system: WSUDLCL2
Test: Antiproliferative activity against human WSUDLCL2 cells expressing wild-type EZH2 assessed as inhibition of cell proliferation incubated for 6 days by CCK8 assay
Format: functional, cell-based
Settings: WSUDLCL2, 144 h
Quick list: IC50 per entry.

>>> print(df.to_string())
                                   compound        val
0  CCC(=O)NCc1cc(C(=O)NCc2c(SC)cc(C)[nH]c2=O)c(C)c(N(CC)C2CCOCC2)c1  > 3000 nM
1  C=CC(=O)NCc1cc(C(=O)NCc2c(SC)cc(C)[nH]c2=O)c(C)c(N(CC)C2CCOCC2)c1  > 3000 nM

Could you now consider this next compound?
**Query** I have this compound here, CCN(c1cc(-c2ccc(CN3CCOCC3)cc2)cc(C(=O)NCc2c(C)cc(C)[nH]c2=O)c1C)C1CCOCC1 [TAZEMETOSTAT] , and I need its recorded IC50.
**Result** > 3000 nM

----------
Molecular target: Histone-lysine N-methyltransferase EZH2 (Homo sapiens, UniProt Q15910, Y641F)
Sequence (Q15910 whole entry Y641F): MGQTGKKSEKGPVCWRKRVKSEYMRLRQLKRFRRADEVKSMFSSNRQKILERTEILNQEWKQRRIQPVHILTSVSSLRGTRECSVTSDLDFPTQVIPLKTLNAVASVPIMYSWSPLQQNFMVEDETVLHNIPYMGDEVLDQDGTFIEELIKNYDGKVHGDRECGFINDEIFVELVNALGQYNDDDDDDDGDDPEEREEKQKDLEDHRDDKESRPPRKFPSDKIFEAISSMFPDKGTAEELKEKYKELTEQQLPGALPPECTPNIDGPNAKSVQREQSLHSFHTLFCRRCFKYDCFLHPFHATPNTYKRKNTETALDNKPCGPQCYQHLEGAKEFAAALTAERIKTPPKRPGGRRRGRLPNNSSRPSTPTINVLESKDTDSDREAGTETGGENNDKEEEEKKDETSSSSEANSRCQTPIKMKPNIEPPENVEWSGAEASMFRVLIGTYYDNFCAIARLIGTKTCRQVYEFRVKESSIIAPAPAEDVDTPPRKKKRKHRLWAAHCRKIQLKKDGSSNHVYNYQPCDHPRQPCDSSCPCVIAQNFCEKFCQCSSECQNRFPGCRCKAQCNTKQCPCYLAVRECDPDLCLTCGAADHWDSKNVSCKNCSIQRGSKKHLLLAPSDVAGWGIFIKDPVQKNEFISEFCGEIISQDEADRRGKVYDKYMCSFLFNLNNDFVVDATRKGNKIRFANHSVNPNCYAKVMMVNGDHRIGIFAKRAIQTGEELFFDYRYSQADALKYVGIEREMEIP
Test: Inhibition of N-terminal FLAG-tagged recombinant full-length human EZH2 Y641F mutant in PRC2 complex expressed in baculovirus infected Sf9 cells using H3K27me0 biotin/SAM as substrate preincubated for 10 mins followed by substrate addition measured after 4 hrs by HTRF assay
assay-endpoint: IC50 (nM)
Write it as a number; the unit nM goes unstated.

Some solved cases for reference:
                    structure_smiles_string  val
0  CCC(=O)Nc1cc(C(=O)NCc2c(C)cc(C)[nH]c2=O)c(C)c(N(CC)C2CCOCC2)c1   38
1  C=CC(=O)NCc1cc(C(=O)NCc2c(CCC)cc(C)[nH]c2=O)c(C)c(N(CC)C2CCOCC2)c1    4
2  CCC(=O)NCc1cc(C(=O)NCc2c(SC)cc(C)[nH]c2=O)c(C)c(N(CC)C2CCOCC2)c1  134
3  CCC(=O)N(C)c1cc(C(=O)NCc2c(C)cc(C)[nH]c2=O)c(C)c(N(CC)C2CCOCC2)c1   50
4  CC#CC(=O)Nc1cc(C(=O)NCc2c(C)cc(C)[nH]c2=O)c(C)c(N(CC)C2CCOCC2)c1   11
5  C=CS(=O)(=O)Nc1cc(C(=O)NCc2c(C)cc(C)[nH]c2=O)c(C)c(N(CC)C2CCOCC2)c1  173

Could you now consider this next molecule?
**Query** I have this molecule here, C=CC(=O)NCc1cc(C(=O)NCc2c(OC)cc(C)[nH]c2=O)c(C)c(N(CC)C2CCOCC2)c1 , and I need its recorded IC50.
**Result** 9

----------
Target: Histone-lysine N-methyltransferase EZH2 (Homo sapiens, UniProt Q15910, Y641F)
Assay: Inhibition of N-terminal FLAG-tagged recombinant full-length human EZH2 Y641F mutant in PRC2 complex expressed in baculovirus infected Sf9 cells using H3K27me0 biotin/SAM as substrate preincubated for 10 mins followed by substrate addition measured after 4 hrs by HTRF assay
assay-endpoint: log10 of IC50 (log10 of the value in nM)
Lab note - IC50 converted to log10 from values in nM.

In [3]: df
Out[3]:
                    structure_smiles_string                             system_tested   val
0  C=CC(=O)NCc1cc(C(=O)NCc2c(C)cc(C)[nH]c2=O)c(C)c(N(CC)C2CCOCC2)c1  Histone-lysine N-methyltransferase EZH2 (Homo sapiens, UniProt Q15910, Y641F)  1.59
1  C=CC(=O)N(C)c1cc(C(=O)NCc2c(C)cc(C)[nH]c2=O)c(C)c(N(CC)C2CCOCC2)c1  Histone-lysine N-methyltransferase EZH2 (Homo sapiens, UniProt Q15910, Y641F)  1.54

**Query** Requested read-out log10 of IC50, target or system Histone-lysine N-methyltransferase EZH2 (Homo sapiens, UniProt Q15910, Y641F), entry CCN(c1cc(NC(=O)/C=C/CN(C)C)cc(C(=O)NCc2c(C)cc(C)[nH]c2=O)c1C)C1CCOCC1
**Result** 1.56

**Query** Requested read-out log10 of IC50, target or system Histone-lysine N-methyltransferase EZH2 (Homo sapiens, UniProt Q15910, Y641F), entry C/C=C/C(=O)Nc1cc(C(=O)NCc2c(C)cc(C)[nH]c2=O)c(C)c(N(CC)C2CCOCC2)c1
**Result** 1.32

**Query** Requested read-out log10 of IC50, target or system Histone-lysine N-methyltransferase EZH2 (Homo sapiens, UniProt Q15910, Y641F), entry C=C(C)C(=O)Nc1cc(C(=O)NCc2c(C)cc(C)[nH]c2=O)c(C)c(N(CC)C2CCOCC2)c1
**Result** 1.58

**Query** Requested read-out log10 of IC50, target or system Histone-lysine N-methyltransferase EZH2 (Homo sapiens, UniProt Q15910, Y641F), entry C=CC(=O)Nc1cc(C(=O)NCc2c(C)cc(C)[nH]c2=O)c(C)c(N(CC)C2CCOCC2)c1
**Result** 1.00

**Query** Requested read-out log10 of IC50, target or system Histone-lysine N-methyltransferase EZH2 (Homo sapiens, UniProt Q15910, Y641F), entry CCN(c1cc(NC(=O)/C=C/CN2CCOCC2)cc(C(=O)NCc2c(C)cc(C)[nH]c2=O)c1C)C1CCOCC1
**Result** 1.32

**Query** Requested read-out log10 of IC50, target or system Histone-lysine N-methyltransferase EZH2 (Homo sapiens, UniProt Q15910, Y641F), entry CCC(=O)NCc1cc(C(=O)NCc2c(C)cc(C)[nH]c2=O)c(C)c(N(CC)C2CCOCC2)c1
**Result** 2.14

----------
Experiment: Cmax in Sprague-Dawley rat at 10 mg/kg, po measured for 0.25 to 24 hrs by LC-MS/MS analysis
Format: ADME, organism-based
Design: time lower 0.25 hrs, dose 10 mg/kg, time upper 24 hrs, route po
Conditions: in vivo
assay-endpoint: Cmax
Record the result as a number with its unit.

**Query** I have this compound here, C=CC(=O)NCc1cc(C(=O)NCc2c(SC)cc(C)[nH]c2=O)c(C)c(N(CC)C2CCOCC2)c1 , and I need its recorded Cmax.
**Result** 29.5 ng/mL

----------
Assay: Metabolic stability in human liver microsomes assessed as half life preincubated for 10 mins followed by NADPH addition measured upto 60 mins by LC-MS/MS analysis
Format: ADME, Microsome
Settings: time < 70 min
Label key: 1 (yes) means half-life under 20 min; 0 (no) means half-life of 20 min or more.

Past entries and their recorded results:
In [3]: df
Out[3]:
                    structure_smiles_string  label_class
0  C=CC(=O)NCc1cc(C(=O)NCc2c(SC)cc(C)[nH]c2=O)c(C)c(N(CC)C2CCOCC2)c1       0 (no)
1  C=CC(=O)NCc1cc(C(=O)NCc2c(C)cc(C)[nH]c2=O)c(C)c(N(CC)C2CCOCC2)c1       0 (no)
2  C=CC(=O)Nc1cc(C(=O)NCc2c(C)cc(C)[nH]c2=O)c(C)c(N(CC)C2CCOCC2)c1      1 (yes)
3  C=CC(=O)NCc1cc(C(=O)NCc2c(OC)cc(C)[nH]c2=O)c(C)c(N(CC)C2CCOCC2)c1       0 (no)

Next molecule, please.
**Query** State whether 20 min exceeds half-life recorded for C=CC(=O)N(C)c1cc(C(=O)NCc2c(C)cc(C)[nH]c2=O)c(C)c(N(CC)C2CCOCC2)c1 .
**Result** 1 (yes)

----------
Test: Bioavailability in Sprague-Dawley rat at 10 mg/kg, po measured for 0.25 to 24 hrs by LC-MS/MS analysis
Type: ADME, organism-based
Settings: in vivo, time 0.25-24 hrs
assay-endpoint: bioavailability (%)
Write it as a number; the unit % goes unstated.

**Query** I have this compound here, C=CC(=O)NCc1cc(C(=O)NCc2c(SC)cc(C)[nH]c2=O)c(C)c(N(CC)C2CCOCC2)c1 , and I need its recorded bioavailability.
**Result** 0.05
